The reported measurements were obtained from PubChem BioAssay AID1159580.

Assay: chemical genetic growth profiling, strain panel (AID 1159580);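 also: tested at 20 µM; growth read once vehicle control cultures reached saturation at 30 °C; 1 = growth at the plate median or of vehicle wells; lower values mean less growth of the strain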
Conditions: S. cerevisiae deletion strains, growth OD, locus YJR066W, strain TOR1, hits give low values
Out of some 5,500 compounds screened, about 2,000 (36%) were called active. Not shown: some 18% with an inconclusive outcome. This is one part of the list.
Observed Property: normalized growth
One number for each entry.

Value sought for every listed compound: normalized growth.
1. CCC1CCC(C)N(C(=S)Nc2ccc(Br)cc2C)C1 (stereo unspecified)
2. COc1ccc(CN(CCN(C)C)c2ncccn2)cc1
3. C/C=C/c1ccc(OC)cc1
4. COc1cc(N=Cc2cc(Cl)cc(Cl)c2OC(=O)c2cc(OC)c(OC)c(OC)c2)c(OC)cc1Cl
5. COc1ccc(/C=C/C(=O)O)cc1OC

A.
0.987
0.954
0.902
0.148
0.907

Value sought for every listed compound: normalized growth.
1. C[C@@]12C(=O)OC(=O)[C@]1(C)C1CCC2O1
2. N[C@@H](CCC(=O)N[C@@H](CCSC(CC(=O)O)C(=O)O)C(=O)NCC(=O)O)C(=O)O (stereo partly specified)
3. COc1ccccc1C(C[N+](=O)[O-])c1c(N)n(C)c(=O)n(C)c1=O (stereo unspecified)

A.
[0.049, 0.997, 0.369]

Value sought for every listed compound: normalized growth.
1. COc1cc(Cl)c(NS(=O)(=O)c2cc(Br)c(Br)s2)c(OC)c1
2. CCC(COC(=O)c1cc(OC)c(OC)c(OC)c1)(c1ccccc1)N(C)C (stereo unspecified)
3. COC(=O)[C@H]1[C@H]2C[C@@H]3c4[nH]c5cc(OC)ccc5c4CCN3C[C@H]2C[C@@H](OC(=O)c2cc(OC)c(OC)c(OC)c2)[C@@H]1OC
4. Cc1nc(C(F)(F)F)c(C(=O)O/N=C(/N)c2ccc(Cl)cc2)s1
5. CCOP(=S)(OCC)Oc1ccc2c(C)c(Cl)c(=O)oc2c1
6. C/C(=N/OC(=O)Nc1ccc(Cl)cc1)c1ccc2c(c1)CCO2

A.
[0.896, 0.924, 0.949, 1.06, 0.967, 0.727]

Value sought for every listed compound: normalized growth.
1. Cc1ccc(C(C)C)cc2c(C)ccc1-2
2. O=C(CCSc1cccs1)Nc1cccc(C(F)(F)F)c1

A.
1. 0.925
2. 0.905
